Values were extracted from paper PMC4769559.

# tested target: truncate haemagglutinin-neuraminidase (HN) 49–577 aa of NDV La Sota fused to the yeast GAL4 DNA-BD (Newcastle disease virus, La Sota, UniProt O90340, strain)
# method notes: two-hybrid
# cond: partners not purified

binder	binding result
VHH6 fused to the Gal4 activation domain (pAD-VHH, pGADT7-Rec) (VHH) VHH: QVQLVESGGGSVQAGGSLRLSCTASGFTFDDSDMVWYRQAPGNECEVVSYITSDGTTYHADSVKGRFTISQDNAKSTVYLQMNSLKPEDTAVYYCAADLVLESPSCEWSQGTLVTVSS	binds
VHH3 fused to the Gal4 activation domain (pAD-VHH, pGADT7-Rec) (VHH) VHH: EVQLVESGGGSVQAGGSLRLSCTASGYTRCMGWFRQAPGKEREGVAIVVTGSPYYTDSVKDRFTISLDNAKNTVYLQMNSLKPEDTATYYCAADRSILGCRLFRLYEANYRGQGTLVTVSS	binds
